Each entry below carries its reported ratio of WB intensities.
# Tested target: His-tagged T2 mechanosensitive channel from Thermoplasma volcanium (Thermoplasma volcanium)
# Test protocol: far-Western, overlay or dot blot; channel samples run on SDS-PAGE and blotted on nitrocellulose (His-tagged T1 0.1 µg, His-tagged T2 0.1 µg, tag free T2 0.01 and 0.1 µg); strips incubated with nanobody at 1 µg/ml for 1 hour, bound His-tagged nanobody detected with HisProbe-HRP; intensity ratio of lane 2 of the sample strip to the reference strip
Just the number.

Check out these entries, answers already filled in.
Binder	Reported measurement
nanobody 13 (VHH, pHEN6 vector; also called Nb 13; CA-number 3395; source: E. coli WK6 periplasm, purified (IMAC, gel filtration); not shown: His-tag, C-terminal, kept) VHH: QVQLQESGGGLVQPGGSLRLSCAASGSISRINHMGWYRQPPGKQRELVAVITSGGSTNYADSVKGRFTISRGNYQNTVYLQMNSLKAEDTAVYYCNAYTEFDRPYNHWGQGTQVTVSS	15.1
nanobody 23 (VHH, pHEN6 vector; also called Nb 23; CA-number 3407; source: E. coli WK6 periplasm, purified (IMAC, gel filtration); not shown: His-tag, C-terminal, kept) VHH: QVQLQESGGGLVQPGGFLTLSCAASGSPFSFGAMGWYRQAPGKQRELVAIITRRGSTNYADSVKGRFTVSSDNAKNTVYLQMNSLKPEDTAVYYCYHQTAPVADVTWGQGTQVTVSS	16.6
nanobody 15 (VHH, pHEN6 vector; also called Nb 15; CA-number 3397; source: E. coli WK6 periplasm, purified (IMAC, gel filtration); not shown: His-tag, C-terminal, kept) VHH: QVQLQESGGGLVQPGGSLRLSCAASGSISTINHMGWYRQPPGKQRELVAVITRSGSTNYADSVKGRFTISRGNVKNTVYLQMNSVKAEDTAVYYCNAYTEFDRPYNHWGQGTQVTVSS	25.7
nanobody 8 (VHH, pHEN6 vector; also called Nb 8; CA-number 3389; source: E. coli WK6 periplasm, purified (IMAC, gel filtration); not shown: His-tag, C-terminal, kept) VHH: QVQLQESGGGLVQPGGSLRLSCAASGSPFSFGAMGWYRQAPGKQRELAAIITNAGSTMYADSVKGRFTVSRVNAKNTVSLQMNNLKPEDTAVYYCYAQTAPVADVTWGQGTQVTVSS	15
nanobody 16 (VHH, pHEN6 vector; also called Nb 16; CA-number 3398; source: E. coli WK6 periplasm, purified (IMAC, gel filtration); not shown: His-tag, C-terminal, kept) VHH: QVQLQESGGGLVQPGGSLTLSCAASGSPFSFGAMGWYRQAPGKQRELVAIITSGGSTNYADSVKGRFTVSRDNAKNTVYLQMNSLKPEDTAVYYCYHQTAPVADVTWGQGTQVTVSS	1.98

Switching to the query record.
// returns reported ratio of WB intensities for input nanobody 14 (VHH, pHEN6 vector; also called Nb 14; CA-number 3396; source: E. coli WK6 periplasm, purified (IMAC, gel filtration); not shown: His-tag, C-terminal, kept) VHH: QVQLQESGGGLVQPGGSLRLSCAASGSIFSINSMDWYRQAPGKQRELVATITSGGSTNYADSVKGRFTISRDNAKNTVYLQMNSLKPEDTAVYLCHAVVATRGGYWGQGTQVTVSS
6.07
